# target_of_assay: Human ALDH3A1 (Homo sapiens, UniProt P30838)
# Sequence (P30838 1-453): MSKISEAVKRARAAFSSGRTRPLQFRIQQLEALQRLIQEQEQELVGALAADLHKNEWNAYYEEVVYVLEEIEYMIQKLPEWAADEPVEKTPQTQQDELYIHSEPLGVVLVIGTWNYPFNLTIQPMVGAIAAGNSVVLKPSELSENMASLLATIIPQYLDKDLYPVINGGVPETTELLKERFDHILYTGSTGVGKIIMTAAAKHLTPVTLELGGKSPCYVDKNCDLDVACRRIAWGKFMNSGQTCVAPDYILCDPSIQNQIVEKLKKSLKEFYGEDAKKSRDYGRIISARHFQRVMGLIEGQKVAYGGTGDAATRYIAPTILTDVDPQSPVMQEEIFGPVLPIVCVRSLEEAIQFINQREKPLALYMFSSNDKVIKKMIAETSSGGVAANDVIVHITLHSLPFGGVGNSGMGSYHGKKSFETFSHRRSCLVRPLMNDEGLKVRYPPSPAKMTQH
# experiment_summary: ALDH3A1 biochemical assay (benzaldehyde/NADP+, diaphorase-resazurin readout, 1,536-well)
# conditions: Table S5, biochemical curve class
metric: CC-v2

A selection of reference data follows.
query_smiles | target_of_assay | CC-v2
O=C(NCc1ccc2c(c1)COC2=O)c1csc(N2CCN(c3cccc(C(F)(F)F)c3)CC2)n1 | Human ALDH3A1 (Homo sapiens, UniProt P30838) | -1.1
O=C(NCc1ccc(C(F)(F)F)c(Cl)c1)c1csc(N2CCN(c3cccc(C(F)(F)F)c3)CC2)n1 | Human ALDH3A1 (Homo sapiens, UniProt P30838) | -1.1
O=C(NCc1ccc2c(c1)CCC2)c1csc(N2CCN(c3cccc(C(F)(F)F)c3)CC2)n1 | Human ALDH3A1 (Homo sapiens, UniProt P30838) | -1.1
O=C(NCCc1cccc(OCCCc2ccccc2)c1)c1csc(N2CCN(c3cccc(C(F)(F)F)c3)CC2)n1 | Human ALDH3A1 (Homo sapiens, UniProt P30838) | -1.2
O=C(NCc1ccc2ccccc2c1)c1csc(N2CCN(c3cccc(C(F)(F)F)c3)CC2)n1 | Human ALDH3A1 (Homo sapiens, UniProt P30838) | -1.1

[A] CC1(C)Oc2ccc(CNC(=O)c3csc(N4CCN(c5cccc(C(F)(F)F)c5)CC4)n3)cc2O1
[B] O=C(NCc1ccccc1-c1ccc(Cl)cc1Cl)c1csc(N2CCN(c3cccc(C(F)(F)F)c3)CC2)n1
Request: Between item A and item B , which reported CC-v2 is smaller? Use the label to indicate which entry you chose.
Result: A
(A: -1.1, B: 4)

[A] O=C(NCc1ccc(-c2ccncc2)nc1)c1csc(N2CCN(c3cccc(C(F)(F)F)c3)CC2)n1
[B] NC(=O)c1csc(N2CCN(c3cccc(C(F)(F)F)c3)CC2)n1
Request: Sorting ascending by CC-v2, which comes first: A or B ? Use the label to indicate which entry you chose.
Result: A

[A] Cc1ccc(C)n1-c1ccc(CNC(=O)c2csc(N3CCN(c4cccc(C(F)(F)F)c4)CC3)n2)cc1
[B] CC(C)(C)c1cc(CNC(=O)c2csc(N3CCN(c4cccc(C(F)(F)F)c4)CC3)n2)cc(C(C)(C)C)c1
Request: Select the item whose CC-v2 value is smaller, choosing between A and B . Could you answer with the label of the item you picked?
Result: A
(A: -1.1, B: 4)
